target: ComD receptor (Streptococcus constellatus); assay: Luciferase reporter activation
Where a SMILES comes first, the peptide text is derived from it. [ ]: non-standard residue; d: D form.
readout: log10(EC50) (log10 of the value in nM)

molecule	readout	numericReadout
CC[C@H](C)[C@H](NC(=O)[C@H](CCCNC(=N)N)NC(=O)[C@H](CO)NC(=O)[C@@H](N)CC(=O)O)C(=O)N[C@@H](CCCNC(=N)N)C(=O)N[C@@H](CCSC)C(=O)NCC(=O)N[C@@H](Cc1ccccc1)C(=O)N[C@@H](CC(=O)O)C(=O)N[C@@H](Cc1ccccc1)C(=O)N[C@@H](CO)C(=O)N[C@@H](CCCCN)C(=O)N[C@@H](CC(C)C)C(=O)N[C@@H](Cc1ccccc1)C(=O)NCC(=O)N[C@H](CCCCN)C(=O)O [CSP-k16] (H-DSRIRMGFDFSKLFG[dK]-OH)	log10(EC50)	0.23
CC[C@H](C)[C@H](NC(=O)[C@H](CCCNC(=N)N)NC(=O)[C@H](CO)NC(=O)[C@H](N)CC(=O)O)C(=O)N[C@@H](CCCNC(=N)N)C(=O)N[C@@H](CCSC)C(=O)NCC(=O)N[C@@H](Cc1ccccc1)C(=O)N[C@@H](CC(=O)O)C(=O)N[C@@H](Cc1ccccc1)C(=O)N[C@@H](CO)C(=O)N[C@@H](CCCCN)C(=O)N[C@@H](CC(C)C)C(=O)N[C@@H](Cc1ccccc1)C(=O)NCC(=O)N[C@@H](CCCCN)C(=O)O [CSP-d1] (H-[dD]SRIRMGFDFSKLFGK-OH)	log10(EC50)	0.99
CC[C@H](C)[C@H](NC(=O)[C@H](CCCNC(=N)N)NC(=O)[C@H](CO)NC(=O)[C@@H](N)CC(=O)O)C(=O)N[C@@H](CCCNC(=N)N)C(=O)N[C@@H](CCSC)C(=O)NCC(=O)N[C@@H](Cc1ccccc1)C(=O)N[C@@H](CC(=O)O)C(=O)N[C@@H](Cc1ccccc1)C(=O)N[C@@H](CO)C(=O)N[C@@H](CCCCN)C(=O)N[C@H](CC(C)C)C(=O)N[C@@H](Cc1ccccc1)C(=O)NCC(=O)N[C@@H](CCCCN)C(=O)O [CSP-l13] (H-DSRIRMGFDFSK[dL]FGK-OH)	log10(EC50)	1.40
CC[C@H](C)[C@H](NC(=O)[C@H](CCCNC(=N)N)NC(=O)[C@H](CO)NC(=O)[C@@H](N)CC(=O)O)C(=O)N[C@H](CCCNC(=N)N)C(=O)N[C@@H](CCSC)C(=O)NCC(=O)N[C@@H](Cc1ccccc1)C(=O)N[C@@H](CC(=O)O)C(=O)N[C@@H](Cc1ccccc1)C(=O)N[C@@H](CO)C(=O)N[C@@H](CCCCN)C(=O)N[C@@H](CC(C)C)C(=O)N[C@@H](Cc1ccccc1)C(=O)NCC(=O)N[C@@H](CCCCN)C(=O)O [CSP-r5] (H-DSRI[dR]MGFDFSKLFGK-OH)	log10(EC50)	1.67
CC[C@H](C)[C@H](NC(=O)[C@H](CCCNC(=N)N)NC(=O)[C@H](CO)NC(=O)[C@@H](N)CC(=O)O)C(=O)N[C@@H](CCCNC(=N)N)C(=O)N[C@@H](CCSC)C(=O)NCC(=O)N[C@@H](Cc1ccccc1)C(=O)N[C@@H](CC(=O)O)C(=O)N[C@@H](Cc1ccccc1)C(=O)N[C@@H](CO)C(=O)N[C@H](CCCCN)C(=O)N[C@@H](CC(C)C)C(=O)N[C@@H](Cc1ccccc1)C(=O)NCC(=O)N[C@@H](CCCCN)C(=O)O [CSP-k12] (H-DSRIRMGFDFS[dK]LFGK-OH)	log10(EC50)	0.57
CC[C@@H](C)[C@@H](NC(=O)[C@H](CCCNC(=N)N)NC(=O)[C@H](CO)NC(=O)[C@@H](N)CC(=O)O)C(=O)N[C@@H](CCCNC(=N)N)C(=O)N[C@@H](CCSC)C(=O)NCC(=O)N[C@@H](Cc1ccccc1)C(=O)N[C@@H](CC(=O)O)C(=O)N[C@@H](Cc1ccccc1)C(=O)N[C@@H](CO)C(=O)N[C@@H](CCCCN)C(=O)N[C@@H](CC(C)C)C(=O)N[C@@H](Cc1ccccc1)C(=O)NCC(=O)N[C@@H](CCCCN)C(=O)O [CSP-i4] (H-DSR[dI]RMGFDFSKLFGK-OH)	log10(EC50)	1.40

====

molecular target: ComD receptor (Streptococcus constellatus); test: Luciferase reporter activation
Where a SMILES comes first, the peptide text is derived from it. [ ]: non-standard residue; d: D form.

compound	EC50 / nM
CC[C@H](C)[C@H](NC(=O)[C@H](CCCNC(=N)N)NC(=O)[C@H](CO)NC(=O)[C@@H](N)CC(=O)O)C(=O)N[C@@H](CCCNC(=N)N)C(=O)N[C@H](CCSC)C(=O)NCC(=O)N[C@@H](Cc1ccccc1)C(=O)N[C@@H](CC(=O)O)C(=O)N[C@@H](Cc1ccccc1)C(=O)N[C@@H](CO)C(=O)N[C@@H](CCCCN)C(=O)N[C@@H](CC(C)C)C(=O)N[C@@H](Cc1ccccc1)C(=O)NCC(=O)N[C@@H](CCCCN)C(=O)O [CSP-m6] (H-DSRIR[dM]GFDFSKLFGK-OH)	35
CC[C@H](C)[C@H](NC(=O)[C@@H](CCCNC(=N)N)NC(=O)[C@H](CO)NC(=O)[C@@H](N)CC(=O)O)C(=O)N[C@@H](CCCNC(=N)N)C(=O)N[C@@H](CCSC)C(=O)NCC(=O)N[C@@H](Cc1ccccc1)C(=O)N[C@@H](CC(=O)O)C(=O)N[C@@H](Cc1ccccc1)C(=O)N[C@@H](CO)C(=O)N[C@@H](CCCCN)C(=O)N[C@@H](CC(C)C)C(=O)N[C@@H](Cc1ccccc1)C(=O)NCC(=O)N[C@@H](CCCCN)C(=O)O [CSP-r3] (H-DS[dR]IRMGFDFSKLFGK-OH)	13

====

target: ComD receptor (Streptococcus constellatus, UniProt O33616); assay: Luciferase reporter activation; type: cell-based
pEC50: −log10 of the molar value. Where no end group is shown, it is not given here.
Parameter pEC50: see the listing below.
readout: pEC50

> print(dat)
                            polymersequence                           targetundertest  numericreadout
1                DARIRMGFDFSKLFGK [CSP S2A]  ComD receptor (Streptococcus constellatus, UniProt O33616)            8.25
2  DSRIRMGFDFSKLFGK [Native CSP, reference compound]  ComD receptor (Streptococcus constellatus, UniProt O33616)            8.28
3                DSRIAMGFDFSKLFGK [CSP R5A]  ComD receptor (Streptococcus constellatus, UniProt O33616)            8.32
4                DSRARMGFDFSKLFGK [CSP I4A]  ComD receptor (Streptococcus constellatus, UniProt O33616)           10.05
5               DSRIRMGFDFSKLFGA [CSP K16A]  ComD receptor (Streptococcus constellatus, UniProt O33616)            8.60
6                DSRIRAGFDFSKLFGK [CSP M6A]  ComD receptor (Streptococcus constellatus, UniProt O33616)            8.72

====

biological target: ComD receptor (Streptococcus constellatus, UniProt O33616); experiment: Luciferase reporter activation
Where a SMILES comes first, the peptide text is derived from it. [ ]: non-standard residue; d: D form.
Parameter EC50: see the listing below.

compound	targetUnderTest	unitAnnotation	EC50
CC[C@H](C)[C@H](NC(=O)[C@H](CCCNC(=N)N)NC(=O)[C@@H](CO)NC(=O)[C@@H](N)CC(=O)O)C(=O)N[C@@H](CCCNC(=N)N)C(=O)N[C@@H](CCSC)C(=O)NCC(=O)N[C@@H](Cc1ccccc1)C(=O)N[C@@H](CC(=O)O)C(=O)N[C@@H](Cc1ccccc1)C(=O)N[C@@H](CO)C(=O)N[C@@H](CCCCN)C(=O)N[C@@H](CC(C)C)C(=O)N[C@@H](Cc1ccccc1)C(=O)NCC(=O)N[C@@H](CCCCN)C(=O)O [CSP-s2] (H-D[dS]RIRMGFDFSKLFGK-OH)	ComD receptor (Streptococcus constellatus, UniProt O33616)	nM	7.9
CC[C@H](C)[C@H](NC(=O)[C@H](CCCNC(=N)N)NC(=O)[C@H](CO)NC(=O)[C@@H](N)CC(=O)O)C(=O)N[C@@H](CCCNC(=N)N)C(=O)N[C@@H](CCSC)C(=O)NCC(=O)N[C@@H](Cc1ccccc1)C(=O)N[C@@H](CC(=O)O)C(=O)N[C@@H](Cc1ccccc1)C(=O)N[C@@H](CO)C(=O)N[C@@H](CCCCN)C(=O)N[C@@H](CC(C)C)C(=O)N[C@H](Cc1ccccc1)C(=O)NCC(=O)N[C@@H](CCCCN)C(=O)O [CSP-f14] (H-DSRIRMGFDFSKL[dF]GK-OH)	ComD receptor (Streptococcus constellatus, UniProt O33616)	nM	2
